# Test system: ATP;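 note: ATP exposure 15 min at 22 °C before imaging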
# Test Details: switch fluorescence ratio, 500 uM ATP over buffer (Cy3 cluster intensity, sum of 5 cycles each) (fold (ratio)); higher = stronger signal-on switching upon ATP binding; sequences stand for … in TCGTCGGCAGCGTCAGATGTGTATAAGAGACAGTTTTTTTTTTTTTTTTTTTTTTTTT…TC
# Study Conditions: aptamer strand: ATP DNA aptamer (quencher-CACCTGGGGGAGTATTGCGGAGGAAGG + anchor), 100 nM annealed; ATP concentration: 500 uM
Parameter threshold = 1. Response is True when switch fluorescence ratio meets or exceeds it, else False.

Use the examples below as a reference point.
GGAATTGGGC
True
GGCTAGGGGA
True
GGCCTCGACC
True
TAACTGTCTT
False
TTACGGTTGC
False
CGGGGTATAG
True
TTAAGTACGC
True
CGATACGATT
True
TGAGTGCTGC
True
ATTACGTATT
True

**Q:** Hi, just wondering whether `ATGTTCGGGC` shows switch fluorescence ratio of 1 or higher.
**A:** True

**Q:** Hi, just wondering whether `CCGAGAAAAA` shows switch fluorescence ratio of 1 or higher.
**A:** True
